Hello, the source for this data is patent US20260124312A1, in case you need it.

Target: Human EphA2 (in house, 0.95 mol biotin/monomer) (Human) (UniProt P29317)
Sequence (P29317 25-534 limits assumed): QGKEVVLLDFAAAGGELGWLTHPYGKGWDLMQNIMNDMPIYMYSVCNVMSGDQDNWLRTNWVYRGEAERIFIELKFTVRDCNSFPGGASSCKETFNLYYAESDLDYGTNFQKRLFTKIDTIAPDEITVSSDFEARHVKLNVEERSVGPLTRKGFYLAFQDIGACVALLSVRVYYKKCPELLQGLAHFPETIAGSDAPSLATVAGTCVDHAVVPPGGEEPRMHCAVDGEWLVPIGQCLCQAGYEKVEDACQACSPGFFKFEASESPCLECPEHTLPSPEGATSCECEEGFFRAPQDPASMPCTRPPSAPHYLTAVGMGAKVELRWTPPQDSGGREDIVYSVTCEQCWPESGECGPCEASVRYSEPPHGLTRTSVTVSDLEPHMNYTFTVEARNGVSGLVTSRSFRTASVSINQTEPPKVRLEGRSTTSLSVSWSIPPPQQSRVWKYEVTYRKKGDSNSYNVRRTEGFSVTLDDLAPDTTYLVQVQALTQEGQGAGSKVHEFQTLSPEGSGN
Assay: SPR (Biacore), biotinylated human EphA2 on streptavidin chip
*1 amine or outer side, *2 acyl side, *3 side chain or, on linkers, in order; H or OH if unused. Bridges are numbered along the chain shown (N, C = ends). Where no end group is shown, it is not given here. [ ]: non-standard residue; d: D form. The star is where a group is joined. DM1‑SS‑ = DM1-SS- (SPDB) linker/toxin, COc1cc2cc(c1Cl)N(C)C(=O)C[C@H](OC(=O)[C@H](C)N(C)C(=O)CCSSCCCC(=O)*)[C@]1(C)O[C@H]1[C@H](C)[C@@H]1C[C@@](O)(NC(=O)O1)[C@H](OC)/C=C/C=C(\C)C2; TATA = O=C(CC[*:1])N1CN(C(=O)CC[*:2])CN(C(=O)CC[*:3])C1; DM1‑SS(SO3H)‑ = DM1-SS(SO3H)- (SO3H-SPDB) linker/toxin; DM1‑SS‑(Me)‑ = DM1-SS-(Me)- (SPP) linker/toxin; PABC = O=C(OCc1ccc(N[*:1])cc1)[*:2]; Glutaryl = O=C(CCCC(=O)[*:2])[*:1]; hArg = N=C(N)NCCCC[C@H](N)C(=O)O; Cit = NC(=O)NCCC[C@H](N)C(=O)O; βAla = NCCC(=O)O; Sar = CNCC(=O)O
readoutLabel: kon (M⁻¹ s⁻¹)
Answers are plain numbers, in M⁻¹ s⁻¹.

Supply recorded kon for {MMAE-PABC-Cit-Trp-Glutaryl}-[βAla][Sar][Sar][Sar][Sar][Sar][Sar][Sar][Sar][Sar][Sar]A[hArg]DCPLVNPLCLHPGWTC (linker 15-22-29 via TATA; not fully specified (C-terminus)) [BCY6034] here. 2.23e+06

Name the recorded kon of the binder listed here: {MMAE-PABC-Cit-Val-Glutaryl}-[βAla][Sar][Sar][Sar][Sar][Sar][Sar][Sar][Sar][Sar][Sar]A[hArg]DCPLVNPLCLHPGWTC (linker 15-22-29 via TATA; not fully specified (C-terminus)) [BCY6033] 999000

Answer with reported kon of {DM1‑SS‑}-[βAla][Sar][Sar][Sar][Sar][Sar][Sar][Sar][Sar][Sar][Sar]A[hArg]DCPLVNPLCLHPGWTC (linker 15-22-29 via TATA; not fully specified (C-terminus)) [BCY6031] 2.49e+06

Identify kon associated with the binder {DM1‑SS(SO3H)‑}-[βAla][Sar][Sar][Sar][Sar][Sar][Sar][Sar][Sar][Sar][Sar]A[hArg]DCPLVNPLCLHPGWTC (linker 15-22-29 via TATA; not fully specified (C-terminus)) [BCY6082] 987000

Next:
Consider the binder {DM1‑SS‑(Me)‑}-[βAla][Sar][Sar][Sar][Sar][Sar][Sar][Sar][Sar][Sar][Sar]A[hArg]DCPLVNPLCLHPGWTC (linker 15-22-29 via TATA; not fully specified (C-terminus)) [BCY6032] . State its measured kon. 2.52e+06
